Molecular target: T1, human CD112R antigen protein huCD112R-His (Acro Biosysterm, PVG-H52H4) (human, UniProt Q6DKI7 41-171)
T1 construct: purchased; also called human antigen protein; not shown: His tag
T1 sequence (looked up): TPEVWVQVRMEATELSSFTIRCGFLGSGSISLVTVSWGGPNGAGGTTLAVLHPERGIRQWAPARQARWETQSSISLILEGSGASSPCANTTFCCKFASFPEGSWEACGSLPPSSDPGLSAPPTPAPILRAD
Test: ELISA, huCD112R-His coated on plate
Property measured: pEC50
Worth noting: pEC50 values are minus log10 of concentrations stated in mol/L.

Below, each entry is followed by its recorded pEC50 result.
anti-CD112R antibody CHA.7.518 (antibody, V domains shown, synthesised according to WO/2016/134333; also called Tab-1; Tab 1) VH: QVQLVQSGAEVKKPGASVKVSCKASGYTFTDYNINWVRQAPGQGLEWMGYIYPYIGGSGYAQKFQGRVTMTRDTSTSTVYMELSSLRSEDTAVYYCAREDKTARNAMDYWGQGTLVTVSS VL: DIQMTQSPSSLSASVGDRVTITCRVSENIYSNLAWYQQKPGKAPKLLIYEATNLAEGVPSRFSGSGSGTDFTLTISSLQPEDFATYYCQHFWGTPYTFGQGTKLEIKR; 10.47
C24 (antibody, human IgG1, kappa, V domains shown) VH: QVQLKQSGPGLVQPSQNLSITCTVSGFSLTGYGINWVRQSPGKGLEWLGVIWSGGNTEYNAAFRSRLSISKDTSKSQVFLKMNSLQADDTAIYSCARDSTGLYAMDYWGPGTSVTVSS VL: DLQMTQTTSSLSASLGDRVTISCRTSQDISNFLNWYQQKPDGPLKLLIYYTSRLHSGVPSRFSGSGSGTDYSLTISNLEQEDIATYFCQQGYMLPPTFGGGTKLEIKR; 10.32
C6 (antibody, human IgG1, kappa, V domains shown) VH: QVHLHQSGPELVKPGASVKISCKASGYTFTAYYINWVKQRPGQGLEWIGWIFPGSDSTYYNEKFKGRATLTVDKSSSTAYMLLNSLTSEDSAVYFCARDGELRGPFDYWGQGTTLTVSS VL: DIQMTQSPSSLSASLGGKVTITCKASQDINKYIAWYQHKPGKSPRLLIHYTSTLQAGIPSRFSGSGSGRDYSFSISNLEPEDSATYYCLQYDNLLTFGGGTKLEIKR; 10.26
C44 (antibody, human IgG1, kappa, V domains shown) VH: QVQLQQSGPELMKPGASLKISCKASGYTFTDSYINWVKQRPGQGLEWIGWIFPGSGSTYYNEKFKGTATLTVDKSSSTAYMLLSSLTSEDSAAYFCARDGGLRGPFDYWGQGTTLTVSS VL: DIQMTQSPSSLSASLGGKVTITCKASQDINKYIAWYQHKPGKGPRLLIHYTSTLQSGIPSRFSGSGSGRDYFFSISNLESEDIATYYCLQYDHLLTFGGGTKLEIKR; 10.28

Looking up C28 (antibody, human IgG1, kappa, V domains shown) VH: QIQLQQSGPELVKPGPSVKISCKASGYTFTDYYINWVKQRPGQGLEWIGWIYPGSGYTKYNEKLKGRATLTVDTSSSTAYMQLSSLTSEDSAVYFCARDSFYAMDYWGQGTSVTVSS VL: DIVMTQSQKFMSTTVGDRVSITCKASQNVGTAVAWYQQKPGQSPKLLIYSASNRYTGVPDRFTGSGSGTDFTLTITNMQSEDLADYFCLQYSSYLTFGAGTKLELKR , I see its pEC50 listed as 10.31

Looking up C61 (antibody, human IgG1, kappa, V domains shown) VH: DVQLQESGPGLVKPSQSLSLTCSVTGYSITSNYYWNWIRQFPGNNLEWMGYISSDGTNNYNPSLRNRISITRDTSKNQFFLKLNSVTTEDTATYYCARGLRYGPWGQGTTLTVSS VL: QLILTQSSSASFSLGASAKLTCTLSSQHSTYTIEWYQQQPLKAPKYVMEVKNDGSHRTGDGIPDRFSGSSSGADRYLSISNIQPEDEAIYICGVGDINNYIFGGGTKVTVLR , I see its pEC50 listed as 10.05

Looking up C69 (antibody, human IgG1, kappa, V domains shown) VH: EVQLQQSGPVLVKPGASVKMSCKASGYRLTDYYMHWVKQSHGKSLEWIGIINPYNGGTSYNQKFKGKATLTVDKSSSTAYMELNSLTSDDSAVYYCARDSSNVGNDMDYWGQGTSVSVSS VL: DIQMTQTTSSLSASLGDRVTISCRASQDISNYLNWYLQKPDGTVKLLIYYSSRLHSGVPSRFSGSGSGTDYSLTINNLEQEDIATYFCQQGNTLPRTFGGGTKLEIRR , I see its pEC50 listed as 10.64

Looking up C119 (antibody, human IgG1, kappa, V domains shown) VH: EVKLVESGGGLVQPGGSLKLSCVASGFTFNTYIMSWVRQTPEKRLELVADISNSGGNTYYSDTVKGRFTISRDNAKNTLYLQMSSLKSEDTAMYYCARPDNWDPFVYWGQGTLVTVSA VL: DIQMTQSSSSFSVSLGDRVTITCKASEDIYARLAWYQQKPGNAPRLLISGATSLETGVPSRFSGSGSGKNYTLSITSLQTEDVGTYYCQQHWSTPWTFGGGTNLEIKR , I see its pEC50 listed as 10.60

Looking up C9 (antibody, human IgG1, kappa, V domains shown) VH: EVQLQQSGAELVKPGASVKLSCTASGFNIKDIYMHWLKQRPEQGLEWIGRIDPTNGNSEYDPRFRGKATLTADTSSNIAYLQLSSLTSEDTAVYYCARFGIYPYFDYWGQGTTLTVSS VL: GIVMTQTPKFLLVSAGDRVTITCKASQSVNKAVVWYQQKPGQSPKLLISYASNRYTGVPDRFTGSGYGTDFTFSISTVQAEDLAVYFCQQDYSSPWTFGGGTKLEIKR , I see its pEC50 listed as 10.28

Looking up C125 (antibody, human IgG1, kappa, V domains shown) VH: EVKLVESGGGLVQPGGSLKLSCAASGFTFSSYTMSWVRQTPEKRLELVAELSNSGGSFHYPDNVKGRFTISRDNAKNTLYLQMSSLKSEDTAMYYCARHNWDVYAMDYWGQGTSVTVSS VL: DIQMSQSPASLSASVGETVTITCRASENVNSYLAWYQQKQGRSPQFLVYNAQTLAEGVPSRFSGGGSGTQFSLKINSLQPEDFGSYYCQHHYGNPTFGGGTKLEIKR , I see its pEC50 listed as 10.31
